target: T1, CD3 epsilon homodimer protein (UniProt P07766 23-126); test: SPR Biacore T200, CD3e homodimer on chip, vs unaltered GLS3000 antibody
T1 construct: also called CD3 (CD3 epsilon)
T1 sequence (P07766 23-126): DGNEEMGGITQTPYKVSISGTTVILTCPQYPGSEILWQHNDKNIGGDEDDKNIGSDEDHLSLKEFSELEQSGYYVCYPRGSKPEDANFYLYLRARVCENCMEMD
Observable: ratio of amounts bound (Z=Y/X)
Answers are plain numbers.

Binder | Observable | Numeric result
GLS3000 S27eQ (antibody, name in Kabat numbering, V domains shown, one-arm IgG as m2) VH: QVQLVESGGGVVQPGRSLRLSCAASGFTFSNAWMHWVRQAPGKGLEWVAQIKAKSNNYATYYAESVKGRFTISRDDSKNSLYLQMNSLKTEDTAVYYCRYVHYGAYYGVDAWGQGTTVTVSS VL: DIVMTQSPLSLPVTPGEPASISCRSSQSLVHQNRNTYLHWYQQKPGQAPRLLIYKVSNRFSGVPDRFSGSGSGTDFTLKISRVEAEDVGVYYCGQGTQVPYTFGQGTKLEIK | ratio of amounts bound (Z=Y/X) | 1.1

Provide the reported ratio of amounts bound (Z=Y/X) of each entry below, same order.
1. GLS3000 K107E (antibody, name in Kabat numbering, V domains shown, one-arm IgG as m2) VH: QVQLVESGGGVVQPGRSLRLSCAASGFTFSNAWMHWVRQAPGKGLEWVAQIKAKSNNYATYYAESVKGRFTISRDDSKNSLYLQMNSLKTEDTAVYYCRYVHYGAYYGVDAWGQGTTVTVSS VL: DIVMTQSPLSLPVTPGEPASISCRSSQSLVHSNRNTYLHWYQQKPGQAPRLLIYKVSNRFSGVPDRFSGSGSGTDFTLKISRVEAEDVGVYYCGQGTQVPYTFGQGTKLEIE
2. GLS3000 H27dT (antibody, name in Kabat numbering, V domains shown, one-arm IgG as m2) VH: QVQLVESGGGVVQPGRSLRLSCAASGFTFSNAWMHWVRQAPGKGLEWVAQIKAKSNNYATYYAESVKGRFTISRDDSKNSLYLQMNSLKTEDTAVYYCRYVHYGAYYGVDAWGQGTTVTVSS VL: DIVMTQSPLSLPVTPGEPASISCRSSQSLVTSNRNTYLHWYQQKPGQAPRLLIYKVSNRFSGVPDRFSGSGSGTDFTLKISRVEAEDVGVYYCGQGTQVPYTFGQGTKLEIK

1: 0.94; 2: 0.29
